system: LK-2; test: relative viability (nuclei count vs DMSO), 5 days (fraction); higher = more cells survive; conditions: first compound 2 µM
Metric name: relative viability

Molecule: CN1CCN(CCOc2cc(OC3CCOCC3)c3c(Nc4c(Cl)ccc5c4OCO5)ncnc3c2)CC1 [Saracatinib] + C[C@@H](Oc1cc(-c2cnn(C3CCNCC3)c2)cnc1N)c1c(Cl)ccc(F)c1Cl [Crizotinib] (partner 1 µM)
Endpoint result: 0.201
//
Molecule: CN1CCN(CCOc2cc(OC3CCOCC3)c3c(Nc4c(Cl)ccc5c4OCO5)ncnc3c2)CC1 [Saracatinib] + Cc1nc(NC(=O)N2CCC[C@H]2C(N)=O)sc1-c1ccnc(C(C)(C)C(F)(F)F)c1 [Alpelisib] (partner 2 µM)
Endpoint result: 0.531
//
Molecule: CN1CCN(CCOc2cc(OC3CCOCC3)c3c(Nc4c(Cl)ccc5c4OCO5)ncnc3c2)CC1 [Saracatinib] + O=C(c1cc(Cc2n[nH]c(=O)c3ccccc23)ccc1F)N1CCN(C(=O)C2CC2)CC1 [Olaparib] (partner 8 µM)
Endpoint result: 0.388

----------
system: HCC-827; test: relative viability (nuclei count vs DMSO), 5 days (fraction); higher = more cells survive; conditions: first compound 0.6325 µM

Compound: CN1CCN(CCOc2cc(OC3CCOCC3)c3c(Nc4c(Cl)ccc5c4OCO5)ncnc3c2)CC1 [Saracatinib] + Cc1nc(Nc2ncc(C(=O)Nc3c(C)cccc3Cl)s2)cc(N2CCN(CCO)CC2)n1 [Dasatinib] (partner 0.075 µM)
relative viability: 0.22
--
Compound: CN1CCN(CCOc2cc(OC3CCOCC3)c3c(Nc4c(Cl)ccc5c4OCO5)ncnc3c2)CC1 [Saracatinib] + Cc1cc(Nc2cc(N3CCN(C)CC3)nc(Sc3ccc(NC(=O)C4CC4)cc3)n2)n[nH]1 [Tozasertib] (partner 0.1 µM)
relative viability: 0.171
--
Compound: CN1CCN(CCOc2cc(OC3CCOCC3)c3c(Nc4c(Cl)ccc5c4OCO5)ncnc3c2)CC1 [Saracatinib] + CS(=O)(=O)CCNCc1ccc(-c2ccc3ncnc(Nc4ccc(OCc5cccc(F)c5)c(Cl)c4)c3c2)o1 [Lapatinib] (partner 2 µM)
relative viability: 0.199
--
Compound: Cc1csc(=NC2CCCCC2)n1/N=C/c1ccc(O)c(O)c1O [MIM1] + Nc1ncn([C@H]2C[C@H](O)[C@@H](CO)O2)c(=O)n1 [Decitabine] (partner 2 µM)
relative viability: 0.334
--
Compound: CN1CCN(CCOc2cc(OC3CCOCC3)c3c(Nc4c(Cl)ccc5c4OCO5)ncnc3c2)CC1 [Saracatinib] + CC1(C)CCC(c2ccc(Cl)cc2)=C(CN2CCN(c3ccc(C(=O)NS(=O)(=O)c4ccc(N[C@H](CCN5CCOCC5)CSc5ccccc5)c(S(=O)(=O)C(F)(F)F)c4)cc3)CC2)C1 [Navitoclax] (partner 0.5 µM)
relative viability: 0.368
--
Compound: Cc1csc(=NC2CCCCC2)n1/N=C/c1ccc(O)c(O)c1O [MIM1] + Cc1cc(Nc2cc(N3CCN(C)CC3)nc(Sc3ccc(NC(=O)C4CC4)cc3)n2)n[nH]1 [Tozasertib] (partner 0.1 µM)
relative viability: 0.404
--
Compound: CN1CCN(CCOc2cc(OC3CCOCC3)c3c(Nc4c(Cl)ccc5c4OCO5)ncnc3c2)CC1 [Saracatinib] + C[C@]1(O)C[C@@H](c2nc(-c3ccc4ccc(-c5ccccc5)nc4c3)c3c(N)nccn32)C1 [Linsitinib] (partner 1 µM)
relative viability: 0.338
--
Compound: CN1CCN(CCOc2cc(OC3CCOCC3)c3c(Nc4c(Cl)ccc5c4OCO5)ncnc3c2)CC1 [Saracatinib] + N=C(N)NC(=N)NCCc1ccccc1 [Phenformin] (partner 250 µM)
relative viability: 0.134
--
Compound: Cc1csc(=NC2CCCCC2)n1/N=C/c1ccc(O)c(O)c1O [MIM1] + CCNC(=O)c1noc(-c2cc(C(C)C)c(O)cc2O)c1-c1ccc(CN2CCOCC2)cc1 [Luminespib] (partner 0.01 µM)
relative viability: 0.384

----------
test system: NCI-H1355; assay: relative viability (nuclei count vs DMSO), 5 days (fraction); higher = more cells survive; conditions: first compound 0.003162 µM

Compound: Cc1cn(-c2cc(NC(=O)c3ccc(C)c(Nc4nccc(-c5cccnc5)n4)c3)cc(C(F)(F)F)c2)cn1 [Nilotinib] + O=C(CCCCCCC(=O)Nc1ccccc1)NO [Vorinostat] (partner 1 µM)
relative viability: 0.695

Compound: Cc1cn(-c2cc(NC(=O)c3ccc(C)c(Nc4nccc(-c5cccnc5)n4)c3)cc(C(F)(F)F)c2)cn1 [Nilotinib] + CS(=O)(=O)N1CCN(Cc2cc3nc(-c4cccc5[nH]ncc45)nc(N4CCOCC4)c3s2)CC1 [Pictilisib] (partner 1 µM)
relative viability: 0.468

Compound: Cc1cn(-c2cc(NC(=O)c3ccc(C)c(Nc4nccc(-c5cccnc5)n4)c3)cc(C(F)(F)F)c2)cn1 [Nilotinib] + C[C@]1(O)C[C@@H](c2nc(-c3ccc4ccc(-c5ccccc5)nc4c3)c3c(N)nccn32)C1 [Linsitinib] (partner 1 µM)
relative viability: 1.11

Compound: Cc1cn(-c2cc(NC(=O)c3ccc(C)c(Nc4nccc(-c5cccnc5)n4)c3)cc(C(F)(F)F)c2)cn1 [Nilotinib] + CC(=O)c1c(C)c2cnc(Nc3ccc(N4CCNCC4)cn3)nc2n(C2CCCC2)c1=O [Palbociclib] (partner 0.5 µM)
relative viability: 0.457

Compound: Cc1cn(-c2cc(NC(=O)c3ccc(C)c(Nc4nccc(-c5cccnc5)n4)c3)cc(C(F)(F)F)c2)cn1 [Nilotinib] + COc1cc2c(Oc3ccc(NC(=O)C4(C(=O)Nc5ccc(F)cc5)CC4)cc3F)ccnc2cc1OCCCN1CCOCC1 [Foretinib] (partner 0.25 µM)
relative viability: 1.19

----------
tested on: LCLC-103H; experiment: relative viability (nuclei count vs DMSO), 5 days (fraction); higher = more cells survive; conditions: first compound 0.253 µM

Compound: Nc1cccc2c1CN(C1CCC(=O)NC1=O)C2=O (stereo not drawn) [Lenalidomide] + CC(=O)Nc1cccc(-n2c(=O)n(C3CC3)c(=O)c3c(Nc4ccc(I)cc4F)n(C)c(=O)c(C)c32)c1 [Trametinib] (partner 0.02 µM)
relative viability: 0.687

Compound: Nc1cccc2c1CN(C1CCC(=O)NC1=O)C2=O (stereo not drawn) [Lenalidomide] + O=C(CCCCCCC(=O)Nc1ccccc1)NO [Vorinostat] (partner 1 µM)
relative viability: 0.761

Compound: Nc1cccc2c1CN(C1CCC(=O)NC1=O)C2=O (stereo not drawn) [Lenalidomide] + Nc1ncn([C@H]2C[C@H](O)[C@@H](CO)O2)c(=O)n1 [Decitabine] (partner 2 µM)
relative viability: 0.72

----------
Listing of entries alongside the reported relative viability.
test system: SK-MES-1; assay: relative viability (nuclei count vs DMSO), 5 days (fraction); higher = more cells survive; conditions: first compound 0.02 µM
Metric name: relative viability

Compound: CCNC(=O)c1noc(-c2cc(C(C)C)c(O)cc2O)c1-c1ccc(CN2CCOCC2)cc1 [Luminespib] + CS(=O)(=O)N1CCN(Cc2cc3nc(-c4cccc5[nH]ncc45)nc(N4CCOCC4)c3s2)CC1 [Pictilisib] (partner 1 µM)
Metric name: relative viability
Endpoint result: 0.271

Compound: CCNC(=O)c1noc(-c2cc(C(C)C)c(O)cc2O)c1-c1ccc(CN2CCOCC2)cc1 [Luminespib] + C[C@]1(O)C[C@@H](c2nc(-c3ccc4ccc(-c5ccccc5)nc4c3)c3c(N)nccn32)C1 [Linsitinib] (partner 1 µM)
Metric name: relative viability
Endpoint result: 1.13

Compound: CCNC(=O)c1noc(-c2cc(C(C)C)c(O)cc2O)c1-c1ccc(CN2CCOCC2)cc1 [Luminespib] + O=C(CCCCCCC(=O)Nc1ccccc1)NO [Vorinostat] (partner 1 µM)
Metric name: relative viability
Endpoint result: 1.04

----------
system: SW 900; test: relative viability (nuclei count vs DMSO), 5 days (fraction); higher = more cells survive; details: first compound 0.2 µM
Parameter relative viability: see the listing below.

Compound: CCNC(=O)c1noc(-c2cc(C(C)C)c(O)cc2O)c1-c1ccc(CN2CCOCC2)cc1 [Luminespib] + O=C(CCCCCCC(=O)Nc1ccccc1)NO [Vorinostat] (partner 1 µM)
relative viability: 0.0992
//
Compound: CN1CCN(CCOc2cc(OC3CCOCC3)c3c(Nc4c(Cl)ccc5c4OCO5)ncnc3c2)CC1 [Saracatinib] + CCNC(=O)c1noc(-c2cc(C(C)C)c(O)cc2O)c1-c1ccc(CN2CCOCC2)cc1 [Luminespib] (partner 0.01 µM)
relative viability: 0.152
//
Compound: CN1CCN(CCOc2cc(OC3CCOCC3)c3c(Nc4c(Cl)ccc5c4OCO5)ncnc3c2)CC1 [Saracatinib] + COc1cc2c(Oc3ccc(NC(=O)C4(C(=O)Nc5ccc(F)cc5)CC4)cc3F)ccnc2cc1OCCCN1CCOCC1 [Foretinib] (partner 0.25 µM)
relative viability: 0.737
//
Compound: Cc1csc(=NC2CCCCC2)n1/N=C/c1ccc(O)c(O)c1O [MIM1] + CC(=O)c1c(C)c2cnc(Nc3ccc(N4CCNCC4)cn3)nc2n(C2CCCC2)c1=O [Palbociclib] (partner 0.5 µM)
relative viability: 0.632
//
Compound: Cc1csc(=NC2CCCCC2)n1/N=C/c1ccc(O)c(O)c1O [MIM1] + Nc1nc2[nH]cc(CCc3ccc(C(=O)N[C@@H](CCC(=O)O)C(=O)O)cc3)c2c(=O)[nH]1 [Pemetrexed] (partner 0.2 µM)
relative viability: 0.504
//
Compound: Cc1csc(=NC2CCCCC2)n1/N=C/c1ccc(O)c(O)c1O [MIM1] + Cc1nc(Nc2ncc(C(=O)Nc3c(C)cccc3Cl)s2)cc(N2CCN(CCO)CC2)n1 [Dasatinib] (partner 0.075 µM)
relative viability: 0.619
//
Compound: CCNC(=O)c1noc(-c2cc(C(C)C)c(O)cc2O)c1-c1ccc(CN2CCOCC2)cc1 [Luminespib] + Cc1nc(Nc2ncc(C(=O)Nc3c(C)cccc3Cl)s2)cc(N2CCN(CCO)CC2)n1 [Dasatinib] (partner 0.075 µM)
relative viability: 0.109
